Reference source: the SangsterLogP compilation

Assay: method code SF, from Tomlin, C. (2000). The Pesticide Manual (12th Edition) British Crop Protection Council, Bracknell.
test.readout: logP
Answer with the value's number alone.

Prompt line: For the compound COCC(=O)N(c1c(C)cccc1C)C(C)C(=O)OC (racemic) , give its reported logP.
Response line: 1.75

----------
Assay: method code SF, from DOI: 10.1080/09553009014551091, PMID: 1970998
Conditions: pH 7.4
test.readout: logD

Prompt line: Please give the documented logD of `O=[N+]([O-])c1nccn1COC(CO)CO`
Response line: -1.03

----------
Listed here are compounds together with their documented logP.
Assay: method code SF-RC, from DOI: 10.1021/jf60186a044, PMID: 4688915
// return a plain number; no unit text

Prompt line: Input COc1ccc(C(c2ccc(SC)cc2)C(Cl)(Cl)Cl)cc1 (stereo not drawn) , output reported logP.
Response line: 2.9

Prompt line: Return the recorded logP value; entry: `CSc1ccc(C(c2ccc(SC)cc2)C(Cl)(Cl)Cl)cc1`
Response line: 3.85

Prompt line: Kindly indicate its recorded logP. Item: CCOc1ccc(C(c2ccc(C)cc2)C(Cl)(Cl)Cl)cc1 (stereo not drawn)
Response line: 3.96

----------
Overview of reported logD across a group of molecules:
Assay: method code SF, from DOI: 10.1111/j.2042-7158.1971.tb08772.x, PMID: 4401532
Details: pH 7.2
Write the value as a bare number.

Known results for molecules:
CC(=O)Nc1ccc([N+](=O)[O-])cc1	1.66
CC(=O)Nc1ccc(C=O)cc1	1.25
CC(=O)Nc1ccc(I)cc1	2.46

Could you now look at the following molecule, please?
Prompt line: Note down logD recorded for `CC(=O)Nc1ccc(C)cc1`
Response line: 1.4

----------
Below, each of the compounds is paired with its reported logP value.

CC(C)NC(C)Cc1ccc(I)cc1 (stereo not drawn)	1.6
O=C(CCCN1CCC(O)(c2ccc(I)cc2)CC1)c1ccc(F)cc1	2.6

Consider the record given below.
Prompt line: Assign logP to the following record: `Cc1cc(I)cc(CN(C)CCCN(C)C)c1O`
Response line: 2.2

----------
Listed here are compounds together with their documented logP.
Form rule: numeric answer, no unit written next to it.

Cc1ncc(CNC(=O)N(CCCl)N=O)c(N)n1	0.39

Lab note: next compound to report on.
Prompt line: Given the compound `O=C[C@H](NC(=O)N(CCCl)N=O)[C@@H](O)[C@H](O)[C@H](O)CO` , write its reported logP.
Response line: -1.02

----------
Each item that follows carries a reported logP.
Assay: method code SF-AS, from DOI: 10.1021/jm0104926, PMID: 11960499
Form field (numeric): enter value without unit.

FC(F)(C(Cl)Br)C1N=N1 (configuration not stated)	1.9

Consider now this further molecule.
Prompt line: Please report logP for the following molecule: FC(Cl)C(F)(F)C1(Br)N=N1 (configuration not stated)
Response line: 2.18

----------
test.readout: logP
A bare number is all that is needed in reply.

Prompt line: Could you please provide reported logP for `Cc1cc(Cc2cc(Cl)ccc2Cl)c(Cl)cc1Cl` ? Thanks!
Response line: 6.38

----------
test.readout: logP

Prompt line: Read off the recorded logP for COc1ccc2c(c1)OCC2NC(=O)CN1CCCC1 (stereo unspecified)
Response line: 1.92

----------
Experiment: method code SF-HPLC, from Hairsine, P. (1997). Direct measurement of partition coefficient by shake flask technique and gradient elution HPLC. Lab. Practice, 38(11)73-75.
test.readout: logP

Prompt line: Provide only the value of recorded logP for `O=C(CCNNC(=O)c1ccncc1)NCc1ccccc1`
Response line: 0.83
